Measured values drawn from PubChem BioAssay AID190 for this set.

system: AKR/Lw mice, AKR lymphoma ip, median survival T/C; assay: NCI In Vivo Anticancer Drug Screen. Data for tumor model Lymphoma AKR (Transplanted) (intraperitoneal) in AKR/Lw mice; settings: endpoint: median survival time; dose: 100.0 mg/kg/injection; schedule: Q01DX001 (ip); vehicle: saline; higher = longer survival
Inconclusive results and toxic doses are left out.
Experimental endpoint: T/C

Reported T/C, compound c1ccc2c(c1)CNCc1ccccc1-2 : ____
97 % of control

# query: T/C of entry ClCCCNCc1ccccc1
94 % of control

I would be grateful if you could share the reported T/C for NC(=O)C(Br)CBr (centres undefined) .
108 % of control

May I ask what T/C has been recorded for NCCCC(=O)O ?
93 % of control

What does the data say about its T/C? Entry: O=C(NC(CSSCC(NC(=O)OCc1ccccc1)C(=O)O)C(=O)O)OCc1ccccc1 (centres undefined)
107 % of control

May I ask what T/C has been recorded for COc1ccc(/C=C2/CSC/C(=C/c3ccc(OC)c(OC)c3)C2=O)cc1OC ?
96 % of control

Suppose we examine the compound Nc1nc(=S)c2ncn(C3CC(O)C(CO)O3)c2[nH]1 (centres undefined) ; what T/C value has been reported?
100 % of control

Item ClC1=C(Cl)C2(Cl)C(COc3ccc(Cl)cc3)CC1(Cl)C2(Cl)Cl (centres undefined) has what recorded T/C?
94 % of control

Which T/C value is on record for COC(=O)C1(C)CCC(c2ccc(C)cc2)=C(CC(=O)O)C1 (centres undefined) ?
97 % of control

State the recorded T/C for this entry: c1ccc(CC(Cc2ccccc2)CN2CCCC2)cc1
94 % of control

Could you tell me which T/C is on file for c1ccc2c(c1)CNC2 ?
97 % of control

// query T/C value for entry Cc1cc(NS(=O)(=O)c2ccc(N)cc2)no1
110 % of control

What does the record list as T/C for C/C(=C\Cl)CN1C(=O)c2ccccc2C1=O ?
93 % of control

T/C for O=S1(=O)CC(O)C(Cl)C1 (centres undefined) ?
91 % of control

T/C lookup needed for COc1ccc(S(=O)O)cc1NC(C)=O , thanks.
107 % of control

May I ask what T/C has been recorded for Cc1c(C(=O)O)cc2n(c1=O)Cc1cc3ccccc3nc1-2 ?
100 % of control

Endpoint output: T/C of COc1ccc(/C=C2\CCC3C(=O)CCCC3(C)C2=O)cc1 (centres undefined) . Value?
90 % of control

Record request: T/C value, item C1CC[N+]2=C(C1)OCCC2
91 % of control

Would you kindly share the measured T/C for CCCCCCCCCCCCCCCC(=O)N(CCC#N)CCCCCCCCCN(CCC#N)C(=O)CCCCCCCCCCCCCCC ?
116 % of control

So what's the measured T/C for this one? CCn1c(O)c(C=N)c(=O)[nH]c1=O
94 % of control

Tell me the measured T/C of COc1ccccc1N1C(N)=NC(N)=NC1(C)C , please.
90 % of control

Can you share its T/C? I mean this compound: N=Cc1c(O)[nH]c(=O)[nH]c1=O
105 % of control

Item C1CC2C(CCCC23OCCO3)C2(C1)OCCO2 (centres undefined) has what recorded T/C?
106 % of control

What measured T/C goes with C1=CC2(OCCO2)C2CC=CC3(OCCO3)C2C1 (centres undefined) ?
104 % of control

* * *

tested on: AKR/Lw mice, AKR lymphoma ip, median survival T/C; assay: NCI In Vivo Anticancer Drug Screen. Data for tumor model Lymphoma AKR (Transplanted) (intraperitoneal) in AKR/Lw mice; conditions: endpoint: median survival time; dose: 400.0 mg/kg/injection; schedule: Q01DX001 (ip); vehicle: saline; higher = longer survival
Inconclusive results and toxic doses are left out.
Give measured T/C for each item. Keep answers brief.

I have this compound here, CCOC(=O)c1ccc(NCC(C)(C)[N+](=O)[O-])cc1 , and I need its recorded T/C.
88 % of control

Name the reported T/C value associated with the compound NCCCC(=O)O
95 % of control

Param item = COc1cc2c(cc1OC)[C@H]1CNC[C@H]1[C@@H](c1ccccc1)C2 ; retrieve measured T/C.
97 % of control

GET /values?readout=T/C&item= CC(=O)N(C(C)=O)c1ccc(C)cc1
104 % of control

Returns the measured T/C for the input compound. Input: ClC1=C(Cl)C2(Cl)C(COc3ccc(Cl)cc3)CC1(Cl)C2(Cl)Cl (centres undefined)
91 % of control

I'd like to know its T/C. The compound in question is O=c1[nH]cc(-c2ccccc2)c(=O)[nH]1
97 % of control

Please report the recorded T/C for O=C(O)O .
95 % of control

Requested read-out: T/C. Entry: N=Cc1c(O)[nH]c(=O)[nH]c1=O
88 % of control

Which T/C reading was recorded for the compound c1ccc(CC(Cc2ccccc2)=[N+]2CCCC2)cc1 ?
88 % of control

* * *

system: AKR/Lw mice, AKR lymphoma ip, median survival T/C; test: NCI In Vivo Anticancer Drug Screen. Data for tumor model Lymphoma AKR (Transplanted) (intraperitoneal) in AKR/Lw mice; details: endpoint: median survival time; dose: 100.0 mg/kg/injection; schedule: Q01DX001 (ip); vehicle: saline with Tween-80; higher = longer survival
Inconclusive results and toxic doses are left out.
For each of the compounds below, state its T/C.

Give the measured T/C of CC(=O)CC(=O)Nc1ccc([N+](=O)[O-])cc1 .
96 % of control

Could you tell me which T/C is on file for Nc1ccccc1SC1CC(=O)N(c2ccccc2)C1=O (centres undefined) ?
94 % of control

# input compound: S=c1nc(-c2ccccc2)c(-c2ccccc2)n[nH]1 ; wanted: its T/C
106 % of control

Name the reported T/C value associated with the compound O=P1(N(CCCl)CCCl)NCCCO1 (centres undefined)
154 % of control

* * *

tested on: AKR/Lw mice, AKR lymphoma ip, median survival T/C; experiment: NCI In Vivo Anticancer Drug Screen. Data for tumor model Lymphoma AKR (Transplanted) (intraperitoneal) in AKR/Lw mice; conditions: endpoint: median survival time; dose: 100.0 mg/kg/injection; schedule: Q01DX001 (ip); vehicle: Klucel (hydroxypropylcellulose) (HPC); higher = longer survival
Toxic doses and inconclusive results are not listed.
Experimental endpoint: T/C

What T/C value was documented for this molecule, COc1ccc(Br)cc1/C=N\NS(=O)(=O)c1ccc(C)cc1 ?
106 % of control

Requested field: T/C. Item: O=C(c1ccccc1)C1CCC1
95 % of control

T/C for OCC1C(CO)C2(Cl)C(Cl)=C(Cl)C1(Cl)C2(Cl)Cl (stereo unspecified) ?
100 % of control

Look at this molecule and give its reported T/C. Clc1nnc(Nc2ccccc2)c2ccccc12
92 % of control

Please look up its T/C: O=c1cc(-c2ccccc2)nc(Nc2nc3ccc([N+](=O)[O-])cc3[nH]2)[nH]1
96 % of control

Name the reported T/C value associated with the molecule COc1cc2c(cc1OC)C(CNC(=O)/C=C/c1ccccc1)C2 (stereo unspecified)
102 % of control

Consider the molecule CC(=O)NC1CC2c3ccccc3C1([N+](=O)[O-])c1ccccc12 (stereo unspecified) and give its measured T/C.
104 % of control

Consider the molecule shown here: O=C1c2ccccc2-c2ncccc21 What is its recorded T/C?
100 % of control

State the recorded T/C for this entry: ClC1=C(Cl)C2(Cl)C3COCC3C1(Cl)C2(Cl)Cl (stereo unspecified)
100 % of control

Item under review: O=C(O)CCC(=O)Nc1cccc(Oc2ccc([N+](=O)[O-])cc2[N+](=O)[O-])c1 . Reported T/C?
100 % of control

Can you look up the measured T/C of O=C(Cc1ccc2cc3c(cc2c1)OCO3)NCCc1ccc2c(c1)OCO2 for me?
92 % of control

// query T/C value for entry COc1cc2c(cc1OC)C(C#N)C2 (stereo unspecified)
100 % of control

Form field: reported T/C of CCOc1ccc2nc(N)sc2c1
89 % of control

Bench note: what T/C did Cc1ccc(N=C(c2ccc([N+](=O)[O-])cc2)c2ccc([N+](=O)[O-])cc2)cc1 show?
96 % of control

I would be grateful if you could share the reported T/C for OC1(C#CC2(O)c3ccccc3-c3ccccc32)c2ccccc2-c2ccccc21 .
105 % of control

Name the reported T/C value associated with the molecule Nc1ccc(OCc2ccc(S(=O)(=O)F)c(Cl)c2)c(Cl)c1
87 % of control

Endpoint output: T/C of O=[N+]([O-])c1ccc(OCc2ccc(S(=O)(=O)F)c(Cl)c2)c(Cl)c1 . Value?
97 % of control

For the molecule shown here, O=CN(c1ccccc1)c1ccccc1 , give the reported T/C.
97 % of control

Suppose we examine the molecule CCCCCCCC(=O)NCCCC ; what T/C value has been reported?
96 % of control

Which measured T/C value corresponds to CCOC(=O)C1OC12CCCCC2 (stereo unspecified) ?
96 % of control

T/C lookup needed for COC(=O)C1(C)CCC(c2ccc(OC)cc2)C(CC(=O)O)C1=O (stereo unspecified) , thanks.
100 % of control

Param item = Cc1ccc(N2C(=O)CC(Sc3ccccc3N)C2=O)cc1 (stereo unspecified) ; retrieve measured T/C.
100 % of control

Sample CCN(CC)C(N)=S — what was its T/C?
105 % of control

Value lookup for T/C; key = CC(=O)CCN1C(=O)c2ccccc2C1=O
105 % of control

Which measured T/C value corresponds to O=C(Nc1ccccc1)Oc1ccc(Cl)cc1 ?
100 % of control

So what does the record say about T/C for COc1ccc(NC(=S)Nc2ccccn2)cc1 ?
100 % of control

So what does the record say about T/C for COC(=O)CC(=O)c1ccc(C)cc1 ?
100 % of control

Consider the molecule CC(=O)NNC(=O)c1ccccn1 and give its measured T/C.
114 % of control

Look up T/C for this molecule: S=c1[nH]nc(NC2CCCCC2)s1
100 % of control

Look up T/C for this molecule: COc1ccc(CCN2C(=O)CSC2=S)cc1OC
100 % of control

I am curious: what T/C value has been reported for CCOC(=O)/C(C(C)=O)=C(/O)c1ccc(OC(F)(F)C(F)Cl)cc1OC(F)(F)C(F)Cl.CCOC(=O)/C(C(C)=O)=C(/O)c1ccc(OC(F)(F)C(F)Cl)cc1OC(F)(F)C(F)Cl.[Cu] (stereo unspecified) ?
100 % of control

Dear colleague, I am looking for the recorded T/C of the following molecule: CC(C)c1ccc(C(c2c(O)c3ccccc3oc2=O)c2c(O)c3ccccc3oc2=O)cc1
113 % of control

# T/C lookup, item S=c1nc[nH]c2nc[nH]c12
96 % of control

// lookup T/C for NC(CSC(c1ccccc1)(c1ccccc1)c1ccccc1)C(=O)O (stereo unspecified)
97 % of control

Need T/C of COc1ccccc1Oc1ccc(N=Cc2ccc(C)cc2)cc1 , thanks.
93 % of control

Quick one: T/C of O=C1CSC(=S)N1c1ccco1 ?
103 % of control

What value of T/C has been recorded for this entry: c1cc2cc3c(cc2cc1CC1NCCc2cc4c(cc21)OCO4)OCO3 (stereo unspecified)
94 % of control

Requested read-out: T/C. Entry: CCCCC(C(=O)OCC)C(CCC1CCCCC1)(C(=O)OCC)C(=O)OCC (stereo unspecified)
110 % of control

Fill in: T/C of Brc1cc(Br)c(-c2c(Br)cc(Br)cc2Br)c(Br)c1 is ___
103 % of control

Which T/C value is on record for CC(C)(C)/[N+]([O-])=[N+](\[O-])C(C)(C)C (tested in a mixture with another compound) ?
95 % of control

Fill blank: measured T/C of the molecule COc1cc2c(cc1OC)C1CCN3CCCC3N1CC2 (stereo unspecified) is ____.
100 % of control
